The measured values listed here are drawn from ChEMBL document CHEMBL4680355.

EXPERIMENTAL_TARGET: Bacterial 70S ribosome
TEST_DETAILS: Binding affinity to Staphylococcus aureus 70S ribosome assessed as dissociation constant by measuring reduction in BODIPY-Erythromycin A binding incubated for 1.5 hr by fluorescence polarization assay
ASSAY_METRIC: Kd (nM)
Give the value in nM but do not write nM after it.

Q. Return reported Kd. Input compound: `CO[C@H]1/C=C/[C@@](C)(O)/C=C/C(=O)O[C@H](C)[C@@H](C)CC/C=C/1C`
A. 2.4

###

TEST_DETAILS: Inhibition of Staphylococcus aureus MurA expressed in Escherichia coli BL21(DE3) assessed as using DP-G1cNAc as substrate preincubated for 15 mins by HPLC method
ASSAY_METRIC: Ki (µM)
Give the value in µM but do not write µM after it.

Q. Return reported Ki. Input compound: `CO[C@H]1/C=C/[C@@](C)(O)/C=C/C(=O)O[C@H](C)[C@@H](C)CC/C=C/1C`
A. 23.6
